# experimental_system: 17β-Hydroxysteroid Dehydrogenase Type 2 Enzyme (17β-HSD2) (Homo sapiens)
# Construct: made in house; host or cells: Sf-9 insect cells (baculovirus)
# Sequence (P37059 whole entry): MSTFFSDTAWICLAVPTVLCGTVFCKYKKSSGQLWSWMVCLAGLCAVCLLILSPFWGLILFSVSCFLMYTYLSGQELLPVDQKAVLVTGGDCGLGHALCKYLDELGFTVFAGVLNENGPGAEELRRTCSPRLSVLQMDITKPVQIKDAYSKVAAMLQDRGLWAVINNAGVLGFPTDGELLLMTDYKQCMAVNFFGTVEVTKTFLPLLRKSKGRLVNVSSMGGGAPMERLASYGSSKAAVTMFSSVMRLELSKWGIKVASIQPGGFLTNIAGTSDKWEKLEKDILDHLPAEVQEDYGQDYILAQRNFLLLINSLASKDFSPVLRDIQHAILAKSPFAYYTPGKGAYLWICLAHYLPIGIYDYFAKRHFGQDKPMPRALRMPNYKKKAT
# test_method_notes: Inhibition of the 17β-hydroxysteroid dehydrogenase type 2 enzyme, 3H-testosterone conversion
# Assay type: biochemical
# measurement_parameters: inhibitor at 10 μM
result_type: inhibition at 10 µM (%)
Unit % implied. Number only.

Below, 4 molecules whose answers are already recorded.
N#CC(=C1CCN(C(=O)N2CCCCC2)CC1)c1cc(F)cc(F)c1 [Compound 10] ... 4
CCOC1CCN(C(=O)N2CCC(=C(C#N)c3ccc(F)cc3)CC2)CC1 [Compound 20] ... 9
COC1CCN(C(=O)N2CCC(=C(C#N)c3ccc(C(F)(F)F)cc3)CC2)CC1 [Compound 146] ... 15
N#CC(=C1CCN(C(=O)N2CCOCC2)CC1)c1cccc2[nH]ncc12 [Compound 45] ... 2

Form: molecule = N#CC(=C1CCN(C(=O)N2CCC(CCO)CC2)CC1)c1cccc(Cl)c1 [Compound 140] ; inhibition at 10 µM = 23
